Origin of the recorded values: patent US20200190192A1

Target: T1, recombinant human Tim-3-Fc (R&D Systems, 2365-TM) (human, UniProt Q8TDQ0 22-202, biotinylated in the Galectin-9 competition ELISA (sites not given))
T1 construct: Bought protein; also called huTim-3-Fc; biotinylated Tim-3-Fc; not shown: Fc of the bought fusion protein
Assay: SPR Biacore, human Tim-3 Fc;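 also: antibodies captured on an anti-FLAG sensor surface, Tim-3-Fc flowed over as analyte at 25 °C in HBS-EP+ buffer, rates fit with a 1:1 Langmuir model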
property.name: koff (s⁻¹)
Give bare numbers, in s⁻¹.

Name the recorded koff for h22E11-VK3-11 × h22E11-VH4-30-4 (antibody, V domains shown, Humanized m22E11) VH: QVQLQESGPGLVKPSQTLSLTCTVSGFSLTSYGVHWIRQPPGKGLEWLVVIWSDGSTTYNPSLKSRVTISKDTSKNQVSLKLSSVTAADTAVYYCARQGGYRYDDAMDYWGQGTLVTVSS VL: EIVLTQSPATLSLSPGERATLSCKASQSVDYDGNSYVNWYQQKPGQAPRLLIYAASNLESGIPARFSGSGSGTDFTLTISSLEPEDFAVYYCQQSNEDPYTFGQGTKVEIK .
0.00107

Moving on to the next binder.
Name the recorded koff for h22E11-VK2-28 × h22E11-5-IgG-HC (antibody, V domains shown, Humanized m22E11) VH: EVQLVESGGGLVQPGGSLRLSCAVSGFSLTSYGVHWVRQAPGKGLEWLVVIWSDGSTTYNSALKSRFTISKDNAKNSVYLQMNSLRAEDTAVYYCARQGGYRYDDAMDYWGQGTLVTVSS VL: DIVLTQSPLSLPVTPGEPASISCKASQSVDYDGNSYVNWYLQKPGQSPQLLIYAASNLESGVPDRFSGSGSGTDFTLKISRVEAEDVGVYYCQQSNEDPYTFGQGTKVEIK .
0.00101
